Value source: the kinase profiling compilation of Christmann-Franck et al. (2016)

Measured kinase still bound, per cent of control accompanies every entry in the list below.
target: MAP2K5 (human) (UniProt Q13163); test: KINOMEscan competition binding; settings: compound 1.0 µM
Sequence (Q13163 whole entry, looked up): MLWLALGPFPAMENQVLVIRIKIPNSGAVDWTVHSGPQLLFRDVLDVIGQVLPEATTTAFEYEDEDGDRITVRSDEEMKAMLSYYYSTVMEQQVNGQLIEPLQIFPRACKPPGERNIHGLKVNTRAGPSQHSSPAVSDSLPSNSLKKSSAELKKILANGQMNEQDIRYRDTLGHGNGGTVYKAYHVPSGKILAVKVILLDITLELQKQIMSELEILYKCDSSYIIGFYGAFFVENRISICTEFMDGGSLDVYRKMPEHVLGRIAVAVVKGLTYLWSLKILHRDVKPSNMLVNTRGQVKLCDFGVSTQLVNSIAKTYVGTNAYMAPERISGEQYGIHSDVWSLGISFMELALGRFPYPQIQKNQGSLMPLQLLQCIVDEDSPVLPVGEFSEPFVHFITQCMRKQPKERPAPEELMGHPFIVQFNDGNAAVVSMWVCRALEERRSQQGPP

# Smiles Representation, Units Symbol, kinase still bound, per cent of control
rows = [
    ("CN(C)C/C=C/C(=O)Nc1cccc(C(=O)Nc2ccc(Nc3nccc(-c4c(-c5ccccc5)nn5ccccc45)n3)cc2)c1", "%", 23),
    ("Cc1cc(NC(=O)c2cccc(NC(=O)/C=C/CN(C)C)c2)ccc1Nc1nccc(-c2cccnc2)n1", "%", 67),
    ("CN(C)C/C=C/C(=O)Nc1cccc(C(=O)Nc2ccc(Nc3nccc(/C(C#N)=C4\\Nc5ccccc5S4)n3)cc2)c1", "%", 100),
    ("CN(C)C/C=C/C(=O)Nc1cccc(C(=O)Nc2ccc(Nc3nccc(-c4cccnc4)n3)cc2)c1", "%", 6.8),
]

----------
target: INSRR (human) (UniProt P14616); test: KINOMEscan competition binding; conditions: compound 1.0 µM

# Smiles Representation, Study System, kinase still bound, per cent of control, %
measured = [
    ("CN(C)C/C=C/C(=O)Nc1cccc(C(=O)Nc2ccc(Nc3nccc(-c4c(-c5ccccc5)nn5ccccc45)n3)cc2)c1", "INSRR (human) (UniProt P14616)", 97),
    ("CN(C)C/C=C/C(=O)Nc1cccc(C(=O)Nc2ccc(Nc3nccc(/C(C#N)=C4\\Nc5ccccc5S4)n3)cc2)c1", "INSRR (human) (UniProt P14616)", 87),
    ("Cc1cc(NC(=O)c2cccc(NC(=O)/C=C/CN(C)C)c2)ccc1Nc1nccc(-c2cccnc2)n1", "INSRR (human) (UniProt P14616)", 100),
    ("CN(C)C/C=C/C(=O)Nc1cccc(C(=O)Nc2ccc(Nc3nccc(-c4cccnc4)n3)cc2)c1", "INSRR (human) (UniProt P14616)", 100),
]

----------
target: CDKL3 (human); assay: KINOMEscan competition binding; settings: compound 1.0 µM

# Smiles Representation, kinase still bound, per cent of control, %
data = [
    ("CN(C)C/C=C/C(=O)Nc1cccc(C(=O)Nc2ccc(Nc3nccc(/C(C#N)=C4\\Nc5ccccc5S4)n3)cc2)c1", 100),
    ("CN(C)C/C=C/C(=O)Nc1cccc(C(=O)Nc2ccc(Nc3nccc(-c4cccnc4)n3)cc2)c1", 41),
    ("Cc1cc(NC(=O)c2cccc(NC(=O)/C=C/CN(C)C)c2)ccc1Nc1nccc(-c2cccnc2)n1", 100),
    ("CN(C)C/C=C/C(=O)Nc1cccc(C(=O)Nc2ccc(Nc3nccc(-c4c(-c5ccccc5)nn5ccccc45)n3)cc2)c1", 100),
]

----------
test system: KIT (human), P10721 [V559D]; assay: KINOMEscan competition binding; settings: compound 1.0 µM
Sequence (P10721 whole entry V559D, looked up): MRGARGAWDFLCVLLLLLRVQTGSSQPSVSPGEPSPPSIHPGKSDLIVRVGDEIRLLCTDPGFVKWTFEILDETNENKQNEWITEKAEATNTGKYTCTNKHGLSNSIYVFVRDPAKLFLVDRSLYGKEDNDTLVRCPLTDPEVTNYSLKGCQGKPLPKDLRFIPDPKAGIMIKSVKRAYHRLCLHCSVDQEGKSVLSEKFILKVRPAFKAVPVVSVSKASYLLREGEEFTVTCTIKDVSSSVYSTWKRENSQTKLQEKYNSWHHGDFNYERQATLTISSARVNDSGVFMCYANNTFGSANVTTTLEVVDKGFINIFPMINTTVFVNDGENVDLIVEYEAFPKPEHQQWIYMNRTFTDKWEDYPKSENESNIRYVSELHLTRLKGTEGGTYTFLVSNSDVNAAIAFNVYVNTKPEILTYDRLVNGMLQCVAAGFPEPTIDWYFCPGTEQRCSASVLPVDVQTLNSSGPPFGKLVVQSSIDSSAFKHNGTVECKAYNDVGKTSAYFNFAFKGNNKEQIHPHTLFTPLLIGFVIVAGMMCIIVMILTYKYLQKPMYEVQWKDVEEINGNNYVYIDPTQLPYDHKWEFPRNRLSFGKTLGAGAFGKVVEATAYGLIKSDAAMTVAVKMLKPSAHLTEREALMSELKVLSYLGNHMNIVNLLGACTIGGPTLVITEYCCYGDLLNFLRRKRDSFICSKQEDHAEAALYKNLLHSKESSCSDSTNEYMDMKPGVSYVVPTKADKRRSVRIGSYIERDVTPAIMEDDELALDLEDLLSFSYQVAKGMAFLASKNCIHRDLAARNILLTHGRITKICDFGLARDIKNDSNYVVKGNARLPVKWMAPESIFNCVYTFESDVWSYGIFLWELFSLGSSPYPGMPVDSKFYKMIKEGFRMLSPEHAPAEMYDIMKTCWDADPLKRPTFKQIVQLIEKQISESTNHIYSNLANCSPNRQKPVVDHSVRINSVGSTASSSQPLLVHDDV

# Smiles Representation, kinase still bound, per cent of control, %
data = [
    ("CN(C)C/C=C/C(=O)Nc1cccc(C(=O)Nc2ccc(Nc3nccc(-c4c(-c5ccccc5)nn5ccccc45)n3)cc2)c1", 0.6),
    ("CN(C)C/C=C/C(=O)Nc1cccc(C(=O)Nc2ccc(Nc3nccc(-c4cccnc4)n3)cc2)c1", 1),
    ("CN(C)C/C=C/C(=O)Nc1cccc(C(=O)Nc2ccc(Nc3nccc(/C(C#N)=C4\\Nc5ccccc5S4)n3)cc2)c1", 11),
    ("Cc1cc(NC(=O)c2cccc(NC(=O)/C=C/CN(C)C)c2)ccc1Nc1nccc(-c2cccnc2)n1", 0.95),
]

----------
biological target: EPHA1 (human) (UniProt P21709); assay: KINOMEscan competition binding; conditions: compound 1.0 µM

# Smiles Representation, kinase still bound, per cent of control / %
records = [
    ("Cc1cc(NC(=O)c2cccc(NC(=O)/C=C/CN(C)C)c2)ccc1Nc1nccc(-c2cccnc2)n1", 99),
    ("CN(C)C/C=C/C(=O)Nc1cccc(C(=O)Nc2ccc(Nc3nccc(-c4c(-c5ccccc5)nn5ccccc45)n3)cc2)c1", 38),
    ("CN(C)C/C=C/C(=O)Nc1cccc(C(=O)Nc2ccc(Nc3nccc(-c4cccnc4)n3)cc2)c1", 95),
    ("CN(C)C/C=C/C(=O)Nc1cccc(C(=O)Nc2ccc(Nc3nccc(/C(C#N)=C4\\Nc5ccccc5S4)n3)cc2)c1", 89),
]

----------
Measured kinase still bound, per cent of control accompanies every entry in the list below.
biological target: UniProt Q13555; experiment: KINOMEscan competition binding; settings: compound 1.0 µM
Sequence (Q13555 whole entry, looked up): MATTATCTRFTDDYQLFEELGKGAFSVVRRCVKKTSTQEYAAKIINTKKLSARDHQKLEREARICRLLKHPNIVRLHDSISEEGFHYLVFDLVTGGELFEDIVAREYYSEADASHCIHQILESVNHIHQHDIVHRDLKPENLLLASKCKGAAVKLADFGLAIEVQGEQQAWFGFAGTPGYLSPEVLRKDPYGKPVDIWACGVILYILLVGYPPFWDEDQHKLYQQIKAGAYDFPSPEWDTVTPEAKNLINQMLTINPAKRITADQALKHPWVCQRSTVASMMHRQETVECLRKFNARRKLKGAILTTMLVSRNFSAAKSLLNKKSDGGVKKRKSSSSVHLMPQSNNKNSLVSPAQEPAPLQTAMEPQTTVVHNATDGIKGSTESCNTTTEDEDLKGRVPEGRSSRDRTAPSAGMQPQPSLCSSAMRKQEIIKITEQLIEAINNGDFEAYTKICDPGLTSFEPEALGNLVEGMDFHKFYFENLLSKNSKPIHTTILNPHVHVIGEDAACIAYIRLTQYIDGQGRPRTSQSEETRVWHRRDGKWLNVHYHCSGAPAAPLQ

# Smiles Representation, kinase still bound, per cent of control [%]
rows = [
    ("CN(C)C/C=C/C(=O)Nc1cccc(C(=O)Nc2ccc(Nc3nccc(/C(C#N)=C4\\Nc5ccccc5S4)n3)cc2)c1", 100),
    ("CN(C)C/C=C/C(=O)Nc1cccc(C(=O)Nc2ccc(Nc3nccc(-c4cccnc4)n3)cc2)c1", 99),
    ("Cc1cc(NC(=O)c2cccc(NC(=O)/C=C/CN(C)C)c2)ccc1Nc1nccc(-c2cccnc2)n1", 100),
    ("CN(C)C/C=C/C(=O)Nc1cccc(C(=O)Nc2ccc(Nc3nccc(-c4c(-c5ccccc5)nn5ccccc45)n3)cc2)c1", 100),
]

----------
Measured kinase still bound, per cent of control accompanies every entry in the list below.
molecular target: RIPK4 (human) (UniProt P57078); assay: KINOMEscan competition binding; conditions: compound 1.0 µM
Measured Parameter: kinase still bound, per cent of control (%)

# Smiles Representation, Units Symbol, Test Value
data = [
    ("CN(C)C/C=C/C(=O)Nc1cccc(C(=O)Nc2ccc(Nc3nccc(-c4c(-c5ccccc5)nn5ccccc45)n3)cc2)c1", "%", 100),
    ("CN(C)C/C=C/C(=O)Nc1cccc(C(=O)Nc2ccc(Nc3nccc(-c4cccnc4)n3)cc2)c1", "%", 31),
    ("Cc1cc(NC(=O)c2cccc(NC(=O)/C=C/CN(C)C)c2)ccc1Nc1nccc(-c2cccnc2)n1", "%", 79),
    ("CN(C)C/C=C/C(=O)Nc1cccc(C(=O)Nc2ccc(Nc3nccc(/C(C#N)=C4\\Nc5ccccc5S4)n3)cc2)c1", "%", 100),
]

----------
biological target: INSR (human) (UniProt P06213); experiment: KINOMEscan competition binding; conditions: compound 1.0 µM
Sequence (P06213 whole entry, looked up): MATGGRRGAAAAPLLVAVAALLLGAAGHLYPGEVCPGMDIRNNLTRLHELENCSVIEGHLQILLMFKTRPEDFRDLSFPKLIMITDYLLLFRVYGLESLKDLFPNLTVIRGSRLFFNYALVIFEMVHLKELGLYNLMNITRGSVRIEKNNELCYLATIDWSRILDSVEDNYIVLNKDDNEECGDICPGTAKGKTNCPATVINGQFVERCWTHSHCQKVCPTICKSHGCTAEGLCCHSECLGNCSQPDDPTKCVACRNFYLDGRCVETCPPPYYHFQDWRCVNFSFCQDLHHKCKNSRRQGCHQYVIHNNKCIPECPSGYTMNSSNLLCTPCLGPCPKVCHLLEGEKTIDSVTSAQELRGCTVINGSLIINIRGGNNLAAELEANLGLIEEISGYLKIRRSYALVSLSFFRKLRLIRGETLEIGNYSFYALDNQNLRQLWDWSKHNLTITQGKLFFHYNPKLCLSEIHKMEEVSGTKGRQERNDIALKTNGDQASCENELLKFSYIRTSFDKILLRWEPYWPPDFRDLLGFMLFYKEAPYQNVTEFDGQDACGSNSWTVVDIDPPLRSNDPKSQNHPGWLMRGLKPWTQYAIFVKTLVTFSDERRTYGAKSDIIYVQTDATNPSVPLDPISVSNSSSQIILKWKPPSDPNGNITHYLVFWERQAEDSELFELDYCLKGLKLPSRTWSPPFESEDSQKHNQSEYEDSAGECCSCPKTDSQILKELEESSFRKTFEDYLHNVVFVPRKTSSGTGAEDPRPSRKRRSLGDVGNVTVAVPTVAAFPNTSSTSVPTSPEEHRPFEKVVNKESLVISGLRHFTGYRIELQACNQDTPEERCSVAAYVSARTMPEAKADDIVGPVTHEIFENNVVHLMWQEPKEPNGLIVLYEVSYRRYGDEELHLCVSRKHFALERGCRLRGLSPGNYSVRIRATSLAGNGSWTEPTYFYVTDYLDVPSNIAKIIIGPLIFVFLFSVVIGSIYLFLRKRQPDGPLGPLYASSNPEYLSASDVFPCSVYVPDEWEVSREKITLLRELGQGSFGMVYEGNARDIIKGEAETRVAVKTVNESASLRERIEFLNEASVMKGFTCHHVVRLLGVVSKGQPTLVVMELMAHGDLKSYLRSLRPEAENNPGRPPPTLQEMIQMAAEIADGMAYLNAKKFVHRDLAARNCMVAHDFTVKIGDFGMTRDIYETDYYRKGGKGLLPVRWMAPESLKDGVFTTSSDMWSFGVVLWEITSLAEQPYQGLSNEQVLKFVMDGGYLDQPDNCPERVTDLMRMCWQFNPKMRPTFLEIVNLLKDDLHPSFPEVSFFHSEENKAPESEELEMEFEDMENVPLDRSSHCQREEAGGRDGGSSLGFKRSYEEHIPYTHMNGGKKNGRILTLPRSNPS
Measured kinase still bound, per cent of control accompanies every entry in the list below.
Measured Parameter: kinase still bound, per cent of control (%)

# Smiles Representation, Measured Parameter, Test Value
measured = [
    ("CN(C)C/C=C/C(=O)Nc1cccc(C(=O)Nc2ccc(Nc3nccc(-c4c(-c5ccccc5)nn5ccccc45)n3)cc2)c1", "kinase still bound, per cent of control", 100),
    ("Cc1cc(NC(=O)c2cccc(NC(=O)/C=C/CN(C)C)c2)ccc1Nc1nccc(-c2cccnc2)n1", "kinase still bound, per cent of control", 14),
    ("CN(C)C/C=C/C(=O)Nc1cccc(C(=O)Nc2ccc(Nc3nccc(-c4cccnc4)n3)cc2)c1", "kinase still bound, per cent of control", 100),
    ("CN(C)C/C=C/C(=O)Nc1cccc(C(=O)Nc2ccc(Nc3nccc(/C(C#N)=C4\\Nc5ccccc5S4)n3)cc2)c1", "kinase still bound, per cent of control", 100),
]

----------
target: MAP4K1 (human); experiment: KINOMEscan competition binding; conditions: compound 1.0 µM

# Smiles Representation, kinase still bound, per cent of control, %
measured = [
    ("CN(C)C/C=C/C(=O)Nc1cccc(C(=O)Nc2ccc(Nc3nccc(-c4cccnc4)n3)cc2)c1", 79),
    ("CN(C)C/C=C/C(=O)Nc1cccc(C(=O)Nc2ccc(Nc3nccc(/C(C#N)=C4\\Nc5ccccc5S4)n3)cc2)c1", 100),
    ("CN(C)C/C=C/C(=O)Nc1cccc(C(=O)Nc2ccc(Nc3nccc(-c4c(-c5ccccc5)nn5ccccc45)n3)cc2)c1", 69),
    ("Cc1cc(NC(=O)c2cccc(NC(=O)/C=C/CN(C)C)c2)ccc1Nc1nccc(-c2cccnc2)n1", 89),
]

----------
target: IKBKE (human) (UniProt Q14164); experiment: KINOMEscan competition binding; conditions: compound 1.0 µM
Sequence (Q14164 whole entry, looked up): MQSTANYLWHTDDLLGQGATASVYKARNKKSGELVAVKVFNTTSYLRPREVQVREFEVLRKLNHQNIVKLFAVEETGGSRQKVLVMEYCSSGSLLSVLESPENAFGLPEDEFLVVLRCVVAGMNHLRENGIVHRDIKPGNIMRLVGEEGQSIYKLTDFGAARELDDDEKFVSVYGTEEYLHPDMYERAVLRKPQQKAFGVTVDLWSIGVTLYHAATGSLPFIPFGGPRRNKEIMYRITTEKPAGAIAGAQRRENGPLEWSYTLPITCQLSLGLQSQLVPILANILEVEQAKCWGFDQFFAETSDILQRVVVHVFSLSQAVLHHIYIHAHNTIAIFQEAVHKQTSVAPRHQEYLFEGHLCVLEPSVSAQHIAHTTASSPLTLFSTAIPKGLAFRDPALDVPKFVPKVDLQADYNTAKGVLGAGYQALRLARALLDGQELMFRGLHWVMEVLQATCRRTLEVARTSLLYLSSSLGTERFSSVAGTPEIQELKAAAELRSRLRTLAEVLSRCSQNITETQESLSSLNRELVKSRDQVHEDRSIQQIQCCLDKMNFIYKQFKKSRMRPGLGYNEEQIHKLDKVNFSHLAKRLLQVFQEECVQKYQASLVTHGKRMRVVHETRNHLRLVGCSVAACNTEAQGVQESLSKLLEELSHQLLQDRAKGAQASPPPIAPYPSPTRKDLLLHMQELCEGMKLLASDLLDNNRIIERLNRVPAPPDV
Measured kinase still bound, per cent of control accompanies every entry in the list below.

# Smiles Representation, kinase still bound, per cent of control / %
rows = [
    ("CN(C)C/C=C/C(=O)Nc1cccc(C(=O)Nc2ccc(Nc3nccc(-c4cccnc4)n3)cc2)c1", 98),
    ("Cc1cc(NC(=O)c2cccc(NC(=O)/C=C/CN(C)C)c2)ccc1Nc1nccc(-c2cccnc2)n1", 91),
    ("CN(C)C/C=C/C(=O)Nc1cccc(C(=O)Nc2ccc(Nc3nccc(-c4c(-c5ccccc5)nn5ccccc45)n3)cc2)c1", 95),
    ("CN(C)C/C=C/C(=O)Nc1cccc(C(=O)Nc2ccc(Nc3nccc(/C(C#N)=C4\\Nc5ccccc5S4)n3)cc2)c1", 100),
]

----------
target: UniProt:P43403; test: KINOMEscan competition binding; conditions: compound 1.0 µM
Sequence (P43403 whole entry, looked up): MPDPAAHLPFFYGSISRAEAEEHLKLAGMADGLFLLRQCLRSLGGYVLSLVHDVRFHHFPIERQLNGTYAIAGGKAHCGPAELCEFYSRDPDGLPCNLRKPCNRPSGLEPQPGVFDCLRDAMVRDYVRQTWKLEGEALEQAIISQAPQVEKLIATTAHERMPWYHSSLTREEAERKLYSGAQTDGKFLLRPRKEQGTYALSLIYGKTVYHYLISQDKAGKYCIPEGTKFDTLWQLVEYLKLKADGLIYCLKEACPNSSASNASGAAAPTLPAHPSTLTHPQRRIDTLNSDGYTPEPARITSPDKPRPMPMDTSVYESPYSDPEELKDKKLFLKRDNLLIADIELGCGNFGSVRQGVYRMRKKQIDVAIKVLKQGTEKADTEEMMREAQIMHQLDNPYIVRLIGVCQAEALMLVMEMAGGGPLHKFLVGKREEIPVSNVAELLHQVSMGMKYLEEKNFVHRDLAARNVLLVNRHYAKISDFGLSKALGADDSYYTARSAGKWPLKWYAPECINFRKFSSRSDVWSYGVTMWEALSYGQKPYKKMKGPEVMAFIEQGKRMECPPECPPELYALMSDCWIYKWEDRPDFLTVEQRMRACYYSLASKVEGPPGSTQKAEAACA
Measured kinase still bound, per cent of control accompanies every entry in the list below.

# Smiles Representation, Study System, kinase still bound, per cent of control
rows = [
    ("CN(C)C/C=C/C(=O)Nc1cccc(C(=O)Nc2ccc(Nc3nccc(/C(C#N)=C4\\Nc5ccccc5S4)n3)cc2)c1", "UniProt:P43403", "81%"),
    ("CN(C)C/C=C/C(=O)Nc1cccc(C(=O)Nc2ccc(Nc3nccc(-c4cccnc4)n3)cc2)c1", "UniProt:P43403", "100%"),
    ("Cc1cc(NC(=O)c2cccc(NC(=O)/C=C/CN(C)C)c2)ccc1Nc1nccc(-c2cccnc2)n1", "UniProt:P43403", "79%"),
    ("CN(C)C/C=C/C(=O)Nc1cccc(C(=O)Nc2ccc(Nc3nccc(-c4c(-c5ccccc5)nn5ccccc45)n3)cc2)c1", "UniProt:P43403", "96%"),
]
